The reported measurements were obtained from ChEMBL document CHEMBL1151486.

Species on record: Oryctolagus cuniculus
Assay: Evaluation of vasodilatory activity in Isolated rabbit aorta strips
Format: functional
pIC50: −log10 of the molar value.
OUTCOME_MEASURE: pIC50

(I) CC/C(=C\C(=O)C(N)=O)C(C)[N+](=O)[O-] (configuration not stated)
(II) CC/C(=C\C(=N/O)C(N)=O)C(C)[N+](=O)[O-] (configuration not stated)
# input Please choose the item with the lower pIC50 value from this pair: I and II Write the label of whichever entry you select.
# output I
